- Test system: utricular epithelium from seven day-old rats
- TEST SUMMARY: BrdU incorporation (mitogenic activity) in primary culture of infant rat utricular sensory epithelium
- Assay type: cell-based
- PARTICULARS: 50 ng/ml, seventy-two hours culture, infant (seven day-old) rat epithelium; control 50±7
READOUT LABEL: number of BrdU-positive nuclei per piece of epithelium

MOLECULE	EXPERIMENTAL RESULT
FGF-10: recombinant derived FGF-10 (protein, UniProt O15520 38-208, looked up) Fibroblast growth factor 10: QALGQDMVSPEATNSSSSSFSSPSSAGRHVRSYNHLQGDVRWRKLFSFTKYFLKIEKNGKVSGTKKENCPYSILEITSVEIGVVAVKAINSNYYLAMNKKGKLYGSKEFNNDCKLKERIEENGYNTYASFNWQHNGRQMYVALNGKGAPRRGQKTRRKNTSAHFLPMVVHS	11

Value source: patent US6017886A
